B1: HEEH_KT_rd6_0007 (parent)
chain: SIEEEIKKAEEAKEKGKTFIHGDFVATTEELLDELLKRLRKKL

Variants of: B1
assayComment: folding stability dG (cDNA display proteolysis); higher = more stable
testParameters: PBS, room temperature
We use 1 kcal/mol as the dividing line for folding stability dG: on or above the line is y, below is n.

Field: example entries. Status: answers known.
{"variantIdentifier": "K15S", "label": "y"}
{"variantIdentifier": "K42V", "label": "y"}
{"variantIdentifier": "H21W", "label": "y"}

Next item in the queue.
Lookup: Say whether `E29T` shows folding stability dG of 1 kcal/mol or more.
Found: y

Attribution: the MegaScale stability set (Tsuboyama et al. 2023)
